system: U2OS; test: cell viability relative to DMSO; higher = less toxic; conditions: 72 h; 100 nM
measurementName: cell viability (%)
Give a bare numeral; the unit % is implied.

compound	system	outputUnit	cell viability
CCCCOc1ccc(C(=O)CCN2CCCCC2)cc1 [dyclonine]	U2OS	%	94.3
CN1CCc2c(c3ccccc3n2Cc2ccc(C(=O)NO)cc2)C1 [tubastatin-A]	U2OS	%	99.3
CN1CCC(COc2cnc(-c3cccc(Cn4nc(-c5cccc(C#N)c5)ccc4=O)c3)nc2)CC1	U2OS	%	106
Nc1ncn([C@@H]2O[C@H](CO)[C@@H](O)[C@H]2O)c(=O)n1 [azacitidine]	U2OS	%	98.6
Nc1n[nH]c2nc3ccccc3nc12 [CDK1-5-inhibitor]	U2OS	%	95.9

Challenge: Could you tell me which cell viability is on file for CC(Cc1ccccc1)NCCC(c1ccccc1)c1ccccc1 (centres undefined) [prenylamine] ?
Response given: 97.3

Challenge: Could you tell me which cell viability is on file for C=CC(=O)N1CCC[C@@H](n2nc(-c3ccc(Oc4ccccc4)cc3)c3c(N)ncnc32)C1 [ibrutinib] ?
Response given: 98.6

Challenge: Could you tell me which cell viability is on file for CC(C)Oc1cccc(-n2c(CCc3c[nH]c4ccc(Br)cc34)nc3ccccc3c2=O)c1 ?
Response given: 98

Challenge: Could you tell me which cell viability is on file for CCN(CC)C(=S)SSC(=S)N(CC)CC [disulfiram] ?
Response given: 99

Challenge: Could you tell me which cell viability is on file for Nc1ncnc2c1c(-c1ccc(Cl)cc1)nn2-c1cccc(-c2cnnn2Cc2cccc(-c3ccccc3)c2)c1 [KB-SRC-4] ?
Response given: 95.5

----------
Below, each of the compounds is paired with its reported cell viability value.
tested on: Calu-3; assay: cell viability relative to DMSO; higher = less toxic; settings: 72 h; 1000 nM
Give a bare numeral; the unit % is implied.

>>> df
                                   compound  reported
0  Cc1cccc(C)c1NC(=O)[C@@H](C)N [tocainide]       108

// below: cell viability requested for another compound
Challenge: What cell viability appears in the records for this compound with Calu-3? Oc1nc(-c2ccc(C(F)(F)F)cc2)nc2c1CSCC2
Response given: 84.1

----------
test system: Vero E6; assay: cell viability relative to DMSO; higher = less toxic; conditions: 72 h; 1 nM
Below, each of the compounds is paired with its reported cell viability value.
Give a bare numeral; the unit % is implied.

Completed entries (count: 5):
                                   compound  reported
0  Clc1ccc(C2=CCC[C@H]3CC[C@@H]2N3)cn1 [UB-165]       101
1  Cc1c(C)c2c(c(C)c1O)CC[C@@](C)(CCC[C@H](C)CCC[C@H](C)CCCC(C)C)O2 [vitamin-E]      86.5
2  CC1=C(CC(=O)O)c2cc(F)ccc2/C1=C\c1ccc(S(C)(=O)=O)cc1 [exisulind]       104
3  CCCCc1nn(-c2ccccc2C(F)(F)F)c(=O)n1Cc1ccc(-c2ccccc2S(=O)(=O)NC(=O)c2sccc2C)cc1       104
4  CNC[C@H](O)[C@@H](O)[C@H](O)[C@H](O)CO [meglumine]      88.3

Challenge: Could you tell me which cell viability is on file for Cn1nccc1Nc1nccc(-c2ccn([C@H](CO)c3ccc(Cl)c(F)c3)c(=O)c2)n1 [GDC-0994] ?
Response given: 104

Challenge: Could you tell me which cell viability is on file for Cc1ccc(Sc2cncc3sc(C(N)=O)cc23)cc1 ?
Response given: 94.3

Challenge: Could you tell me which cell viability is on file for O=C(O)C(F)(F)C(F)(F)C(F)(F)C(F)(F)C(F)(F)C(F)(F)C(F)(F)F [ammonium-perfluorocaprylate] ?
Response given: 98.2

Challenge: Could you tell me which cell viability is on file for Oc1ccc(Cl)c2cccnc12 [cloxyquin] ?
Response given: 99.7

Challenge: Could you tell me which cell viability is on file for CCN(CC)C(=O)[C@@]1(c2ccccc2)C[C@H]1CN [milnacipran] ?
Response given: 94.6

Challenge: Could you tell me which cell viability is on file for Cc1nc(C)c(C)nc1C [chuanxiongzine] ?
Response given: 104

Challenge: Could you tell me which cell viability is on file for CC(C)c1ccc(NC(=O)Cn2cnc3c2c(=O)n(C)c(=O)n3C)cc1 ?
Response given: 91.6

Challenge: Could you tell me which cell viability is on file for CC(=O)OCC1=C(C(=O)O)N2C(=O)[C@@H](NC(=O)CSc3ccncc3)[C@H]2SC1 [cephapirin] ?
Response given: 95.6
